Settings: 298.15 K; 101.33 kPa; Liquid
Numbers after ± are expanded uncertainties.
reported-property: mass density
Answer as a quantity: numeral, then unit.

Could I get mass density for every one of these entries?
1. C1CCOC1 [tetrahydrofuran]
2. Cc1ccccc1C

Result:
1: 889.2 ± 4.7 kg/m3; 2: 875.9 ± 1.7 kg/m3

---

Test: refractive index (Na D-line) (dimensionless)
Conditions: 298.15 K; 101.33 kPa; Liquid; Standard Abbe refractometry
± gives the expanded uncertainty stated by the source.
Task for the reader: assign each of the following compounds its reported refractive index.

compound	refractive index
Cc1ccc(C)cc1 [1,4-dimethylbenzene]	1.4933 ± 0.0007
Cc1cccc(C)c1 [1,3-dimethylbenzene]	1.4946 ± 0.0007

Could I get refractive index for every one of these entries?
1. Cc1ccccc1C [1,2-dimethylbenzene]
2. C1CCOC1 [tetrahydrofuran]
3. O=C1CCCCC1 [cyclohexanone]
4. COCCOC [1,2-dimethoxyethane]
5. CCCCCCCCCC [decane]

Result:
["1.503 ± 0.0007", "1.4072 ± 0.0007", "1.451 ± 0.0007", "1.3781 ± 0.0007", "1.4097 ± 0.0007"]

---

Conditions: 298.15 K; 101.33 kPa; Liquid
Decision: mass density >= 900 kg/m3 yields YES, all other cases yield NO.

Cc1ccc(C)cc1 NO
COCCOC NO
Cc1cccc(C)c1 NO
CCCCCCCCCC NO

# ---- query compound ----
Query: For this compound, is measured mass density 900 kg/m3 or higher? "O=C1CCCCC1"
Result: YES
